Cited source for all entries: the supplement of paper PMC10307832

test system: NCI-H1666; test: relative viability (nuclei count vs DMSO), 5 days (fraction); higher = more cells survive; conditions: first compound 0.253 µM
// boundary case: relative viability equal to 1 maps to false (0); strictly smaller maps to true (1)

Problem: Strictly below 1 in relative viability? Oc1nc(-c2ccc(C(F)(F)F)cc2)nc2c1CSCC2 [XAV939] + CC1(C)CCC(c2ccc(Cl)cc2)=C(CN2CCN(c3ccc(C(=O)NS(=O)(=O)c4ccc(N[C@H](CCN5CCOCC5)CSc5ccccc5)c(S(=O)(=O)C(F)(F)F)c4)cc3)CC2)C1 [Navitoclax] (partner 0.5 µM)
Solution: true (1)

Problem: Strictly below 1 in relative viability? Oc1nc(-c2ccc(C(F)(F)F)cc2)nc2c1CSCC2 [XAV939] + Nc1ncn([C@H]2C[C@H](O)[C@@H](CO)O2)c(=O)n1 [Decitabine] (partner 2 µM)
Solution: true (1)

Problem: Strictly below 1 in relative viability? Oc1nc(-c2ccc(C(F)(F)F)cc2)nc2c1CSCC2 [XAV939] + CCNC(=O)c1noc(-c2cc(C(C)C)c(O)cc2O)c1-c1ccc(CN2CCOCC2)cc1 [Luminespib] (partner 0.01 µM)
Solution: true (1)

Problem: Strictly below 1 in relative viability? C=C1C(=O)O[C@@H](CCCCCCCC)[C@@H]1C(=O)O [C-75] + COc1cccc2cc(-c3nc([C@H]4CC[C@H](C(=O)O)CC4)n4ncnc(N)c34)[nH]c12 [OSI-027] (partner 0.5 µM)
Solution: true (1)

Problem: Strictly below 1 in relative viability? C=C1C(=O)O[C@@H](CCCCCCCC)[C@@H]1C(=O)O [C-75] + Nc1ncn([C@H]2C[C@H](O)[C@@H](CO)O2)c(=O)n1 [Decitabine] (partner 2 µM)
Solution: true (1)

Problem: Strictly below 1 in relative viability? Oc1nc(-c2ccc(C(F)(F)F)cc2)nc2c1CSCC2 [XAV939] + O=C(CCCCCCC(=O)Nc1ccccc1)NO [Vorinostat] (partner 1 µM)
Solution: true (1)

Problem: Strictly below 1 in relative viability? Oc1nc(-c2ccc(C(F)(F)F)cc2)nc2c1CSCC2 [XAV939] + COc1cc2c(Oc3ccc(NC(=O)C4(C(=O)Nc5ccc(F)cc5)CC4)cc3F)ccnc2cc1OCCCN1CCOCC1 [Foretinib] (partner 0.25 µM)
Solution: true (1)

Problem: Strictly below 1 in relative viability? C=C1C(=O)O[C@@H](CCCCCCCC)[C@@H]1C(=O)O [C-75] + O=C(CCCCCCC(=O)Nc1ccccc1)NO [Vorinostat] (partner 1 µM)
Solution: false (0)

Problem: Strictly below 1 in relative viability? C=C1C(=O)O[C@@H](CCCCCCCC)[C@@H]1C(=O)O [C-75] + Cc1nc(Nc2ncc(C(=O)Nc3c(C)cccc3Cl)s2)cc(N2CCN(CCO)CC2)n1 [Dasatinib] (partner 0.075 µM)
Solution: true (1)

Problem: Strictly below 1 in relative viability? C=C1C(=O)O[C@@H](CCCCCCCC)[C@@H]1C(=O)O [C-75] + C[C@@H](Oc1cc(-c2cnn(C3CCNCC3)c2)cnc1N)c1c(Cl)ccc(F)c1Cl [Crizotinib] (partner 1 µM)
Solution: false (0)
